Ref: paper PMC4821188

Each item that follows carries a reported kcat/Km.
TARGET_OR_TEST_SYSTEM: Recombinant human furin (Homo sapiens, UniProt P09958)
Sequence (P09958 108-715 limits assumed): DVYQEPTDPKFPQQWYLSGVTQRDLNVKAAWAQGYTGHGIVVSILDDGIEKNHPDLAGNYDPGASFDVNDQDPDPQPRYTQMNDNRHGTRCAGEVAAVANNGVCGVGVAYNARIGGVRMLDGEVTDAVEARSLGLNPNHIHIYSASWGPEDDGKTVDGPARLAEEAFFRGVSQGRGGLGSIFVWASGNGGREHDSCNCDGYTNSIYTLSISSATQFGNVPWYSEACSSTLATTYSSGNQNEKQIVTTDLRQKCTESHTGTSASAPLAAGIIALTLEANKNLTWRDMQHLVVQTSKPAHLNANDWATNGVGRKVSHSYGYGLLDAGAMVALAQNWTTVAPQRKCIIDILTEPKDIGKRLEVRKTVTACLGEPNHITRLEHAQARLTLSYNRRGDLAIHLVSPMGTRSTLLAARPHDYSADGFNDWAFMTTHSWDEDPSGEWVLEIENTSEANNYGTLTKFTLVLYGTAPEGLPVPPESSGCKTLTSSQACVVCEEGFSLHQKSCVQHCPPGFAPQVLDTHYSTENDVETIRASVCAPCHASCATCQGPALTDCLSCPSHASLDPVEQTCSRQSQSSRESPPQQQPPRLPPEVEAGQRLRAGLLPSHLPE
Format: biochemical
CONDITIONS_USED: pH 7

# SUBSTANCE, kcat/Km
records = [
    ("RRRKKR↓GLSG [compound 45]", "30500 (797) (mM.s)^−1"),
]

Query block: Any idea what kcat/Km was measured for KKRKRR↓FLGF [compound 33] ?
Result block: 2173 (512) (mM.s)^−1

Query block: Repeat with HRRQKR↓SVAL [compound 14]
Result block: 40270 (32431) (mM.s)^−1

Query block: Item: SRRKRR↓DVTP [compound 6]
Result block: 66000 (20467) (mM.s)^−1

Query block: Thanks! And HRREKR↓SVAL [compound 16] ?
Result block: 38300 (55636) (mM.s)^−1

Query block: How about this substance: RNRQKR↓FVLS [compound 42]
Result block: 337 mM/s

Query block: How about RKRRKR↓ELET [compound 27] ?
Result block: 1400 (164) (mM.s)^−1

Query block: Another substance: VQREKR↓AVGI [compound 18]
Result block: 1290 (407) (mM.s)^−1

Query block: Similarly, RRRDKR↓SVAL [compound 15] ?
Result block: 29658 (37505) (mM.s)^−1

* * *

TARGET_OR_TEST_SYSTEM: Recombinant human furin (Homo sapiens, UniProt P09958)
Type: biochemical
CONDITIONS_USED: pH 7
ASSAY_METRIC: kcat/Km

# SUBSTANCE, TARGET_OR_TEST_SYSTEM, RESULT
data = [
    ("SRRSRR↓SLTV [compound 12]", "Recombinant human furin (Homo sapiens, UniProt P09958)", "15923 (5328) (mM.s)^−1"),
    ("TRRFRR↓SITE [compound 34]", "Recombinant human furin (Homo sapiens, UniProt P09958)", "37358 (28362) (mM.s)^−1"),
]

Query block: Please give the measured kcat/Km for this substance: NLRRRR↓DLVD [compound 28]
Result block: 10606 (1470) (mM.s)^−1

Query block: Now consider HHRQRR↓SVSI [compound 37] and answer again.
Result block: 9031 (116088) (mM.s)^−1

Query block: Again, but for LKRRRR↓DTQQ [compound 30]
Result block: 1303 (2184) (mM.s)^−1

Query block: Try this substance too: Abz-RRRKKR↓GLFG-Q-EDDnp [compound 31]
Result block: 322 mM/s

Query block: Abz-RERRRKKR↓GLFG-Q-EDDnp [peptide 48] ?
Result block: 123000 (1555) (mM.s)^−1

* * *

Each record here notes measured R: relative kcat/Km values in presence vs. absence of MgCl2.
TARGET_OR_TEST_SYSTEM: Recombinant human furin (Homo sapiens, UniProt P09958)
Format: biochemical
Could you respond with only the numeric value?

In the examples that follow, each entry is paired with its recorded R: relative kcat/Km values in presence vs. absence of MgCl2.
# SUBSTANCE, TARGET_OR_TEST_SYSTEM, QUANTITATIVE_RESULT
data = [
    ("MMRHRR↓ELQR [compound 7]", "Recombinant human furin (Homo sapiens, UniProt P09958)", 1.7),
    ("RRRKKR↓SLFG [compound 46]", "Recombinant human furin (Homo sapiens, UniProt P09958)", 54),
    ("KKRKRR↓FLGF [compound 33]", "Recombinant human furin (Homo sapiens, UniProt P09958)", 4.2),
]

Query block: Please state recorded R: relative kcat/Km values in presence vs. absence of MgCl2 (tested on Recombinant human furin (Homo sapiens, UniProt P09958)) of HRRDKR↓SVAL [compound 17]
Result block: 0.6

Query block: # repeat for RRRKKR↓SLSG [compound 47]
Result block: 14

Query block: Can you handle RRRDKR↓SVAL [compound 15] next?
Result block: 0.8

Query block: Consider next the substance HNRTKR↓STDG [compound 23] in the same way.
Result block: 28

Query block: Moving on to SKRSRR↓SVSV [compound 13]
Result block: 1.5

Query block: Proceed to RRRKKR↓GLSG [compound 45]
Result block: 38

Query block: Also need LTRQRR↓SLLP [compound 8] , thanks.
Result block: 1.3

Query block: Consider next the substance VVRVRR↓ELLP [compound 5] in the same way.
Result block: 3.8

Query block: One more substance: RRRAKR↓SPKH [compound 35]
Result block: 6.2

Query block: Cool, now RKRRKR↓ELET [compound 27]
Result block: 8.5

Query block: Similarly, QSRRRR↓QTPP [compound 41] ?
Result block: 0.05

Query block: Now the substance SIRHKR↓EPSV [compound 20]
Result block: 0.9

* * *

TARGET_OR_TEST_SYSTEM: Recombinant human furin (Homo sapiens)
Type: biochemical
*: point of attachment. EDDnp = O=[N+]([O-])c1ccc(NCCN*)c([N+](=O)[O-])c1
Reported R: relative kcat/Km values in presence vs. absence of MgCl2 by item:
# answer = number (no unit)

Past entries and their recorded results:
# SUBSTANCE, QUANTITATIVE_RESULT
rows = [
    ("Abz-RKRSRRQVNTQ-EDDnp [peptide 1]", 44),
    ("Abz-RERRRKKR↓GLFG-Q-EDDnp [peptide 48]", 79),
    ("NLRRRR↓DLVD [compound 28]", 7.2),
    ("Abz-SGRSRRAIDLQ-EDDnp [peptide 10]", 3.0),
    ("Abz-GIRRKRSVSHQ-EDDnp [compound 19]", 0.9),
]

Query block: Give its R: relative kcat/Km values in presence vs. absence of MgCl2 value. Item: HRRQKR↓SVAL [compound 14]
Result block: 1.2

Query block: Then what about the substance TRRFRR↓SITE [compound 34] ?
Result block: 1.3

Query block: Likewise for SSRHRR↓ALDT [compound 36] ?
Result block: 0.3

* * *

TARGET_OR_TEST_SYSTEM: Recombinant human furin (Homo sapiens)
Format: biochemical
CONDITIONS_USED: pH 7
Recorded kcat values for a group of substances are listed next.

# SUBSTANCE, kcat
data = [
    ("VRRRRR↓YALS [compound 43]", "0.60 s⁻¹"),
    ("GQRKKR↓ALDT [compound 40]", "3.6 (3.9) s^−1"),
    ("HNRTKR↓STDG [compound 23]", "7.8 (0.26) s^−1"),
]

Query block: What measured kcat goes with RRRKKR↓GLSG [compound 45] ?
Result block: 6.7 (2.4) s^−1

Query block: Now the same for Abz-GIRRKRSVSHQ-EDDnp [compound 19]
Result block: 29.6 (30.3) s^−1

Query block: How about VVRVRR↓ELLP [compound 5] ?
Result block: 16.6 (12.2) s^−1

* * *

Entries and their kcat/Km values follow.
TARGET_OR_TEST_SYSTEM: Recombinant human furin (Homo sapiens, UniProt P09958)
Format: biochemical
CONDITIONS_USED: pH 7

# SUBSTANCE, ASSAY_METRIC, RESULT
measured = [
    ("QIRAKR↓ELSK [compound 2]", "kcat/Km", "5583 (808) (mM.s)^−1"),
    ("RRRAKR↓SPKH [compound 35]", "kcat/Km", "4383 (710) (mM.s)^−1"),
    ("SSRHRR↓ALDT [compound 36]", "kcat/Km", "1707 (6488) (mM.s)^−1"),
    ("THRTRR↓STSD [compound 24]", "kcat/Km", "4128 (370) (mM.s)^−1"),
    ("SIRHKR↓EPSV [compound 20]", "kcat/Km", "646 (729) (mM.s)^−1"),
]

Query block: Fill in the blank: the reported kcat/Km of Abz-SGRSRRAIDLQ-EDDnp [peptide 10] is ____.
Result block: 15923 (5328) (mM.s)^−1

Query block: Subsequent entry: Abz-GIRRKRSVSHQ-EDDnp [compound 19]
Result block: 70547 (77100) (mM.s)^−1

Query block: Repeat with MMRHRR↓ELQR [compound 7]
Result block: 23409 (13508) (mM.s)^−1

* * *

Parameter: kcat/Km. Scope: all listed entries.
TARGET_OR_TEST_SYSTEM: Recombinant human furin (Homo sapiens)
Type: biochemical
CONDITIONS_USED: pH 7
*: point of attachment. EDDnp = O=[N+]([O-])c1ccc(NCCN*)c([N+](=O)[O-])c1

A selection of reference data follows.
# SUBSTANCE, kcat/Km
records = [
    ("Abz-RKRSRRQVNTQ-EDDnp [peptide 1]", "56300 (1291) (mM.s)^−1"),
    ("HKREKR↓QAKH [compound 39]", "2354 (17734) (mM.s)^−1"),
    ("SKRSRR↓SVSV [compound 13]", "37347(25362) (mM.s)^−1"),
]

Query block: Quick check: kcat/Km of HNRTKR↓STDG [compound 23] ?
Result block: 8210 (289) (mM.s)^−1

Query block: Can you handle GQRKKR↓ALDT [compound 40] next?
Result block: 829 (14130) (mM.s)^−1
